Assignment: determine reported B-score for the given molecules.
target: D(1A) dopamine receptor (Homo sapiens); test: D1 CRE-luciferase signal change, two-sided – cell-based, HEK293 D1, dopamine EC30, D1 allosteric modulator project, primary screen (AID 641); settings: dopamine EC30 potentiation, at 10 µM, actives deviate in either direction
Among all 58,000 compounds or so, about 3,400 (5.9%) were called active. For the sample, actives were picked, then their nearest neighbours and some compounds at random.
In your answer, state the number alone without any accompanying words.

Ask: Given COC(=O)c1ccc(NC(=O)CSc2nnc(Cc3cccn3C)n2-c2ccc(F)cc2)cc1 , state its recorded B-score.
Reply: -0.00937

Ask: What does the data say about its B-score? Entry: O=C(C1CCN(CC2CCCCC2)CC1)N1CCCC1
Reply: 0.0452

Ask: Which B-score value belongs to Cn1c(-c2ccc(F)cc2)cnc1SCC(=O)NCc1ccco1 ?
Reply: -0.294

Ask: Would you kindly share the measured B-score for COc1ccccc1NC(=O)CSc1nnc(Cc2cccn2C)n1-c1ccc(F)cc1 ?
Reply: -0.801

Ask: Would you mind telling me what B-score value was observed for O=C(CSc1nnc2scc(-c3ccc(F)cc3)n12)NCc1ccco1 ?
Reply: 6.74

Ask: Need B-score, item CN(CCc1ccccn1)S(=O)(=O)c1ccc2c3c(cccc13)C(=O)N2
Reply: 0.281

Ask: // B-score lookup, key: CCn1c(Cc2ccccc2)nnc1SCC(=O)Nc1ccccc1
Reply: -0.326

Ask: Need B-score of Cc1ccc(-c2csc3nnc(SCC(=O)NCc4ccco4)n23)cc1 , thanks.
Reply: 1.29

Ask: Query (molecule): COC(=O)C1=CN(C)C=C(C(=O)OC)C1c1ccc(Cl)cc1Cl ; field requested: B-score
Reply: 0.625

These data points were gathered from PubChem BioAssay AID641.
